Source of measurements: patent US20160264649A1

Kindly supply the reported IC50 (neutralization) values for the records listed here.
# TARGET UNDER TEST: HIV-1 Env of isolate MGRM-D-001 (subtype D) (HIV-1)
# PROTOCOL TEXT: cell-based or functional assay
The reply should contain only the number, in µg/mL.

Data request: Provide measured IC50 (neutralization) value, entry: PGT-127 (antibody, V domains shown) VH: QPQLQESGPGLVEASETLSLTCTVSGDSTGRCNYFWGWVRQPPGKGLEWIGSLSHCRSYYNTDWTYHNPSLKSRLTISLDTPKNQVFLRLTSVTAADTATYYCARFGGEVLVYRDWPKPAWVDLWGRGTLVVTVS VL: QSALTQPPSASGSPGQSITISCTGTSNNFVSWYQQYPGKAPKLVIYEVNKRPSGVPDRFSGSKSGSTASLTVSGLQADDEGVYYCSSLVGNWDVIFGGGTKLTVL
Data returned: 2.23

Data request: Quote IC50 (neutralization) reported for PGT-126 (antibody, V domains shown) VH: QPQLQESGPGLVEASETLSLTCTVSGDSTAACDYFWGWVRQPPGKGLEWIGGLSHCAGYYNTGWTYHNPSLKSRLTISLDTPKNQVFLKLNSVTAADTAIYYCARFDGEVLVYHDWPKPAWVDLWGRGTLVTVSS VL: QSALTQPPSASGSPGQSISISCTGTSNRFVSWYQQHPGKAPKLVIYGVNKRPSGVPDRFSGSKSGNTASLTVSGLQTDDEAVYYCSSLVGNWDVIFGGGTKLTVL please.
Data returned: 0.084
